Attribution: ChEMBL document CHEMBL3407445

The following molecules have recorded pIC50 on Acetylcholinesterase (Electrophorus electricus, UniProt O42275).
Sequence (O42275 whole entry): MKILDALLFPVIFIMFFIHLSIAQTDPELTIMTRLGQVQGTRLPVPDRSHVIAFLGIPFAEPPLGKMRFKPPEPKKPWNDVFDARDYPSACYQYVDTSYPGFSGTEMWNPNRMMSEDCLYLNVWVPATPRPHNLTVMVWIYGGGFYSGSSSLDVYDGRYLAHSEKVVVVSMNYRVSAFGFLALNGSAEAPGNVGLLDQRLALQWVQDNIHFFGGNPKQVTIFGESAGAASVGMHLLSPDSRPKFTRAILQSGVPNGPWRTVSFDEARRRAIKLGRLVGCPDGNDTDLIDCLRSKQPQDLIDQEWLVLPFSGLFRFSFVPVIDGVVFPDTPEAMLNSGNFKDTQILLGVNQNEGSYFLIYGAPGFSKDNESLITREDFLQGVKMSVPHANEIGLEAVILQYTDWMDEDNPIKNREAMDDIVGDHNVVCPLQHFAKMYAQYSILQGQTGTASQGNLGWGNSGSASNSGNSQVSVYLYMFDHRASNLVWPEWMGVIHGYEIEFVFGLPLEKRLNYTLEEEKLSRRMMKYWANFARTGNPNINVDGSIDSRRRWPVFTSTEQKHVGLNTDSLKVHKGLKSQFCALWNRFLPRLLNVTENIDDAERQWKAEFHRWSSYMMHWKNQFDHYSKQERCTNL
pIC50: −log10 of the molar value.
observable: pIC50

[[record]]
entry_smiles = "Brc1ccc2oc(-c3cc[n+](Cc4ccccc4)cc3)cc2c1"
observable = "pIC50"
numeric_value = 7.87

[[record]]
entry_smiles = "O=[N+]([O-])c1ccc(C[n+]2ccc(-c3cc4cc(Br)ccc4o3)cc2)cc1"
observable = "pIC50"
numeric_value = 8.09

[[record]]
entry_smiles = "Cc1cc(C)cc(C[n+]2ccc(-c3cc4ccccc4o3)cc2)c1"
observable = "pIC50"
numeric_value = 8.39

[[record]]
entry_smiles = "COc1cccc2cc(-c3cc[n+](Cc4cccc(F)c4)cc3)oc12"
observable = "pIC50"
numeric_value = 7.72

[[record]]
entry_smiles = "Fc1ccc(C[n+]2ccc(-c3cc4cc(Br)ccc4o3)cc2)cc1"
observable = "pIC50"
numeric_value = 8.06

[[record]]
entry_smiles = "COc1cccc2cc(-c3cc[n+](Cc4ccccc4)cc3)oc12"
observable = "pIC50"
numeric_value = 7.58

[[record]]
entry_smiles = "Brc1ccc(C[n+]2ccc(-c3cc4cc(Br)ccc4o3)cc2)cc1"
observable = "pIC50"
numeric_value = 7.50

[[record]]
entry_smiles = "Brc1ccc(C[n+]2ccc(-c3cc4ccccc4o3)cc2)cc1"
observable = "pIC50"
numeric_value = 7.80

[[record]]
entry_smiles = "O=[N+]([O-])c1ccc(C[n+]2ccc(-c3cc4ccccc4o3)cc2)cc1"
observable = "pIC50"
numeric_value = 8.24

[[record]]
entry_smiles = "Fc1cccc(C[n+]2ccc(-c3cc4cc(Br)ccc4o3)cc2)c1"
observable = "pIC50"
numeric_value = 8.02

[[record]]
entry_smiles = "O=[N+]([O-])c1ccccc1C[n+]1ccc(-c2cc3ccccc3o2)cc1"
observable = "pIC50"
numeric_value = 8.31

[[record]]
entry_smiles = "Cc1ccccc1C[n+]1ccc(-c2cc3ccccc3o2)cc1"
observable = "pIC50"
numeric_value = 8.17

[[record]]
entry_smiles = "COc1cccc2cc(-c3cc[n+](Cc4ccc([N+](=O)[O-])cc4)cc3)oc12"
observable = "pIC50"
numeric_value = 7.97

[[record]]
entry_smiles = "COc1cccc2cc(-c3cc[n+](Cc4cccc(Br)c4)cc3)oc12"
observable = "pIC50"
numeric_value = 7.65

[[record]]
entry_smiles = "COc1cccc2cc(-c3cc[n+](Cc4ccc(Br)cc4)cc3)oc12"
observable = "pIC50"
numeric_value = 7.53

